# Tested on: MCF-7 cells
# Protocol Description: Effect on doxorubicin induced cytotoxicity (MTT)
# Condition Set: 10 μM DOX in combination with 100 μM curcumin derivative, 48 hr
Readout Type: Percentage of viable cells MCF-7 (average ± SD)
The answer should be written as a number, with no unit following it.

Check out these entries, answers already filled in.
{"Molecule": "COc1cc(/C=C/C(=O)CC(=O)/C=C/c2ccc(OC(=O)CNC(=O)OCc3ccccc3)c(OC)c2)ccc1OC(=O)CNC(=O)OCc1ccccc1 [Cbz-Gly-Cur]", "Value": 45.44}
{"Molecule": "COc1cc(/C=C/C(=O)CC(=O)/C=C/c2ccc(OC(=O)[C@H](CCSC)NC(=O)OCc3ccccc3)c(OC)c2)ccc1OC(=O)[C@H](CCSC)NC(=O)OCc1ccccc1 [Cbz-Met-Cur]", "Value": 49.74}
{"Molecule": "COc1cc(/C=C/C(=O)CC(=O)/C=C/c2ccc(OC(=O)[C@H](CC(C)C)NC(=O)OCc3ccccc3)c(OC)c2)ccc1OC(=O)[C@H](CC(C)C)NC(=O)OCc1ccccc1 [Cbz-Leu-Cur]", "Value": 50.17}
{"Molecule": "COc1cc(/C=C/C(=O)CC(=O)/C=C/c2ccc(OC(=O)[C@H](Cc3c[nH]c4ccccc34)NC(=O)OCc3ccccc3)c(OC)c2)ccc1OC(=O)[C@H](Cc1c[nH]c2ccccc12)NC(=O)OCc1ccccc1 [Cbz-Trp-Cur]", "Value": 45.17}

Please turn your attention to the following entry.
QUERY: Name the recorded Percentage of viable cells MCF-7 (average ± SD) for COc1cc(/C=C/C(=O)CC(=O)/C=C/c2ccc(OC(=O)[C@H](CC(C)C)NC(=O)OCC3c4ccccc4-c4ccccc43)c(OC)c2)ccc1OC(=O)[C@H](CC(C)C)NC(=O)OCC1c2ccccc2-c2ccccc21 [Fmoc-Leu-Cur] .
RESULT: 41.16

====

# Tested on: A-549 (lung) carcinoma cell line
# Protocol Description: Anti-tumor properties, MTT
# Type: cell-based
# Condition Set: Homo sapiens, A549
Item-by-item account of IC50
// note: answer is a bare numeric in µM

Check out these entries, answers already filled in.
{"Molecule": "COc1cc(/C=C/C(=O)CC(=O)/C=C/c2ccc(OC(=O)CCN)c(OC)c2)ccc1OC(=O)CCN.Cl.Cl [HCl-β-Ala-Cur]", "Unit Descriptor": "µM", "Value": 32.4}
{"Molecule": "COc1cc(/C=C/C(=O)CC(=O)/C=C/c2ccc(OC(=O)[C@@H](N)CCSC)c(OC)c2)ccc1OC(=O)[C@@H](N)CCSC.Cl.Cl [HCl-L-Met-Cur]", "Unit Descriptor": "µM", "Value": 32.8}
{"Molecule": "COc1cc(/C=C/C(=O)CC(=O)/C=C/c2ccc(OC(=O)[C@@H](C)N)c(OC)c2)ccc1OC(=O)[C@@H](C)N.Cl.Cl [HCl-D-Ala-Cur]", "Unit Descriptor": "µM", "Value": 30.9}

QUERY: Name the recorded IC50 for COc1cc(/C=C/C(=O)CC(=O)/C=C/c2ccc(OC(=O)C(C)NC(=O)OC(C)(C)C)c(OC)c2)ccc1OC(=O)C(C)NC(=O)OC(C)(C)C (racemic) [Boc-DL-Ala-Cur] .
RESULT: 73.9

QUERY: Name the recorded IC50 for COc1cc(/C=C/C(=O)CC(=O)/C=C/c2ccc(OC(=O)[C@@H](N)C(C)C)c(OC)c2)ccc1OC(=O)[C@@H](N)C(C)C.Cl.Cl [HCl-L-Val-Cur] .
RESULT: 20.4

QUERY: Name the recorded IC50 for COc1cc(/C=C/C(=O)CC(=O)/C=C/c2ccc(OC(=O)[C@H](CCC(N)=O)NC(=O)OC(C)(C)C)c(OC)c2)ccc1OC(=O)[C@H](CCC(N)=O)NC(=O)OC(C)(C)C [Boc-L-Gln-Cur] .
RESULT: 30.9
